Test system: MCF7 breast
Experiment: NCI tumour cell line growth inhibition, 48 h
Parameter TGI: see the listing below.
property: TGI (µM)

• Cc1cc2nc(NCCN)n(Cc3ccc(F)c(Cl)c3)c2cc1C = 27.1
• COc1ccc2ncn(-c3cc(O[C@H](C)c4ccccc4C(F)(F)F)c(C(N)=O)s3)c2c1 = 13
• CCN1CCC(O)(c2ccc(Oc3ccc(Cl)cc3)cc2)C(C(=O)c2ccc(Oc3ccc(Cl)cc3)cc2)C1 (centres undefined) = 19.9

* * *

Tested on: SF-295 CNS
Assay: NCI tumour cell line growth inhibition, 48 h
property: TGI

- Cc1ccc2c(=O)cc(-c3sccc3C)[nH]c2n1: > 100 µM
- COC(=O)CCC(=O)c1ccc2c(c1)CCC2: > 100 µM
- CC1=C(C#N)C(=C(C#N)C#N)OC1(C)Cc1ccccc1 (stereo not given): > 100 µM
- O=C(CN(/C=C/C(=O)C(F)(F)F)c1ccc(Cl)cc1)c1ccc(Cl)cc1: 17.7 µM
- CC(=O)OC[C@H]1CN(OC(C)=O)C[C@@H](n2cc(C)c(=O)[nH]c2=O)O1: > 100 µM
- CC1(C)OC2C(COC(c3ccccc3)(c3ccccc3)c3ccccc3)OC(c3c[nH]c4c(N)ncnc34)C2O1 (stereo not given): 7.29 µM
- COc1cc2c(c(OC)c1OC)-c1ccc(OC)c(=O)cc1C(NC(=O)COc1ccccc1)CC2 (stereo not given): 0.0874 µM
- CN(Cc1ccccc1)Cn1ccnc1: > 100 µM
- CCc1ccc(Oc2c(-c3ccc(OCc4ccc(Cl)cc4)cc3O)n[nH]c2C(F)(F)F)cc1: 4.74 µM
- Cc1c(C)c2ccc(OCC(O)COC(C)C)c(C)c2oc1=O (stereo not given): > 100 µM
